Target: T1, B7-H3 on MDA-MB-468 cells (human, UniProt Q5ZPR3)
T1 construct: endogenous, on the cell surface
T1 sequence (cell surface antigen, looked up): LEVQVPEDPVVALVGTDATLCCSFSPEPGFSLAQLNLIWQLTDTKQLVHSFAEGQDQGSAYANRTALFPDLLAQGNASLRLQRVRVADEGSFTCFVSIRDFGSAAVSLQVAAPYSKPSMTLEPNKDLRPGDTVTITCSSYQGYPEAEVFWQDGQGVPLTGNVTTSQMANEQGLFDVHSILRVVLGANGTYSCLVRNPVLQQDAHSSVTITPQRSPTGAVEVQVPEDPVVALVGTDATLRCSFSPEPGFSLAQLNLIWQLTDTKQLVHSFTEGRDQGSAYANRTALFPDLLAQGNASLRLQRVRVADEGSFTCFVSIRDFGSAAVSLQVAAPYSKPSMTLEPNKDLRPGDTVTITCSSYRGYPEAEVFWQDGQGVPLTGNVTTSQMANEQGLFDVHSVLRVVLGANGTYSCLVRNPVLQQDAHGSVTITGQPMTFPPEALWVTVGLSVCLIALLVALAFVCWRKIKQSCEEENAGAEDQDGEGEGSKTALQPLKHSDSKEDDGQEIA
Assay: flow cytometry on MDA-MB-468 cells; blank V2-R 0.9%
Property: % of cells in gate V1-R at 0.411 nM; scope: individual binders
Supply the numeric figure in %, leaving out any unit text.

Some binders with known % of cells in gate V1-R at 0.411 nM results, for comparison:
Antibody V5 (antibody, human IgG1, kappa, V domains shown, Humanized from chimeric antibody M1; also called humanized antibody V5) VH: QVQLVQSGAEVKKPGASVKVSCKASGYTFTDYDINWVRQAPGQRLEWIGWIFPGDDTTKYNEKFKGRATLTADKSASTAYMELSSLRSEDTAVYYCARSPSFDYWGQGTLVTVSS VL: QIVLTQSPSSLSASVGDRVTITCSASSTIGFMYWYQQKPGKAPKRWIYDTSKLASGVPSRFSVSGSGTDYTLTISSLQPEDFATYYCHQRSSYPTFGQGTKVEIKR : 31.6
Antibody V2 (antibody, human IgG1, kappa, V domains shown, Humanized from chimeric antibody M1; also called humanized antibody V2) VH: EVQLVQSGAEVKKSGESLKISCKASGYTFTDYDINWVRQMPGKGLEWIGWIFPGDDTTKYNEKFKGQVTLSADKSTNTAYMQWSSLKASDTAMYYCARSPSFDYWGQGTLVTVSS VL: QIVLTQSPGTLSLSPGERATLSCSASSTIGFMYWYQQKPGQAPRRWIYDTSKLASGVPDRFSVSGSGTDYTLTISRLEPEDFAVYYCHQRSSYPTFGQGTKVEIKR : 1.2
Antibody M1 (antibody, human IgG1, kappa, V domains shown, Chimeric antibody: murine variable regions on human IgG1 and light chain constant regions; expressed in HEK293F cells; also called chimeric antibody M1) VH: QVQLQQSGPELVKPGASVRISCKASGYTFTDYDINWVQQRPGQGLEWIGWIFPGDDTTKYNEKFKGRATLTADKSSNTAYMQLNGLTSENSAVYFCARSPSFDYWGQGTLVTVSS VL: QIVLTQSPAIMSASPGERVTMTCSASSTIGFMYWYQQKPGTSPKRWIYDTSKLASGVPARFSVSGSGTSYSLTISSMEAEDAATYYCHQRSSYPTFGGGTKLEIKR : 26.5

Now let's try a different one.
Task: Requested field: % of cells in gate V1-R at 0.411 nM. Item: control Antibody M30-H1-L4 (antibody, human IgG1, kappa, V domains shown, Control anti-B7-H3 antibody) VH: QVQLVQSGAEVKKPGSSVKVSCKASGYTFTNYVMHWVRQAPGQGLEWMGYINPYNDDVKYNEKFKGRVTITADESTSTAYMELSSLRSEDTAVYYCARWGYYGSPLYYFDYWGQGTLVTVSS VL: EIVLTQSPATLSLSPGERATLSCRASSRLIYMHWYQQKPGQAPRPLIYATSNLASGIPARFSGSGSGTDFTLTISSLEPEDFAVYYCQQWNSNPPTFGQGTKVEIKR
Result: 1.1
